Assay: NCI Yeast Anticancer Drug Screen. Data for the bub3 strain (AID 167)
Conditions: S. cerevisiae bub3 mutant strain, at 5.0 µM (retest, dose inferred, filed as 0.5)
About 79,000 compounds went through this panel and 15% of them were active in at least one assay; those are over-represented in the sample as a whole. Calls of active or inactive are those of the source. No stated cut-off is given here; in the data, active means growth inhibition above about 70%; inactive means the rest.
The reply should name one outcome from yes (active), no (inactive)

What call does the record list for O=C(NCCCCCNC(=O)C12CC3CC(CC(C3)C1)C2)C12CC3CC(CC(C3)C1)C2 ?
no

What call does the record list for O=[N+]([O-])c1ccc(N=Nc2ccc(O)cc2O)cc1 ?
no

What call does the record list for O=C1Nc2ccccc2NC(=O)C(=C(c2ccccc2)c2ccccc2)C1=C(c1ccccc1)c1ccccc1 ?
yes

What call does the record list for c1ccc2c(c1)[nH]c1cc3ccncc3cc12 ?
no

What call does the record list for Cc1c(C2CC(=O)NC2=O)c2ccccc2n1C (stereo not drawn) ?
no

What call does the record list for C=C(Cl)C(=NC(C)(C)C)Nc1ccccc1C ?
no

What call does the record list for CN(C)c1cccc(F)c1C(=O)NC(=O)Nc1ccc(Cl)cc1 ?
no

What call does the record list for O=C(Oc1cccc2cccnc12)c1ccccc1 ?
no

What call does the record list for O=CNNC(=O)Nc1ccc(Cl)cc1 ?
no

What call does the record list for Cc1cc(=O)oc2c(C)c3oc(CBr)cc3cc12 ?
no

What call does the record list for CC(=O)NC1=C(Oc2ccccc2)C(=O)c2ccccc2C1=O ?
yes

What call does the record list for O=C(NC(=S)Nc1ncc([N+](=O)[O-])s1)c1ccccc1C(=O)NC(=S)Nc1ncc([N+](=O)[O-])s1 ?
no

What call does the record list for C=C1CC(Cn2ccc(=O)[nH]c2=O)(c2ccc(Cl)cc2)OC1=O (stereo not drawn) ?
no

What call does the record list for S=C(N/N=C/c1ccccn1)N1CCCCCC1 ?
yes

What call does the record list for CCOC(=O)C(CCSC)C(=O)OCC ?
no

----------
Listed here: items and their measured growth inhibition.
Experiment: NCI Yeast Anticancer Drug Screen. Data for the sgs1 mgt1 strain (AID 161);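 further: 0% = growth of cultures given vehicle only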
Conditions: S. cerevisiae sgs1 mgt1 strain, at 5.0 µM (retest, dose inferred, filed as 0.5), stronger effect = higher value
This is part of a sample that, as a whole, favours compounds with a hit. Of some 79,000 tested, about 15% had one in any assay.
Hi! Could you send only the number? It should be in %, unit omitted.

For the compound CCC(CC)(C(=O)Nc1ccc2c(c1)c(=O)c1ccccc1n2C)C(=O)Nc1ccc2c(c1)c(=O)c1ccccc1n2C , give its reported growth inhibition.
-25

For the compound c1cc[c]([Sn]([S]c2cccc3cccnc23)([S]c2cccc3cccnc23)[c]2ccccc2)cc1 , give its reported growth inhibition.
98

For the compound O=C1/C(=C/O)CCc2c1ccc1ccccc21 , give its reported growth inhibition.
-9

For the compound Cc1ccc(-c2c3c(cc4cc(C)ccc24)C(=O)OC3=O)cc1 , give its reported growth inhibition.
-1

For the compound O=C(/C=C\c1ccccc1)N1c2ccccc2CC1c1c[nH]c2ccccc12 (stereo not given) , give its reported growth inhibition.
4

----------
Experiment: NCI Yeast Anticancer Drug Screen. Data for the mec2-1 strain (AID 157)
Conditions: S. cerevisiae mec2-1 strain, at 5.0 µM (retest, dose inferred, filed as 0.5), stronger effect = higher value
The panel holds about 79,000 compounds, 15% with a hit somewhere; the sample as a whole holds those more often.
Listed here: items and their measured growth inhibition.
Hi! Could you send only the number? It should be in %, unit omitted.

Examples from the recorded data:
- compound: "CN(C)c1ccc(C(=C2C=CC(=[N+](C)C)C=C2)c2ccc(N(C)C)cc2)cc1 (tested in a mixture with another compound)"
  assay.value: 99
- compound: "C=CC[C@]1(C(C)C(OC(C)=O)c2ccc3c(c2)OCO3)C[C@@H](OC)C=CC1=O (stereo partly specified)"
  assay.value: 10
- compound: "O=[N+]([O-])c1cccc2nc3ccccc3c(NCCO)c12"
  assay.value: 84
- compound: "NCCCSc1ccc(Br)cc1"
  assay.value: -4
- compound: "Oc1ccc(/C=N/NC(=S)Nc2ccccc2)nc1"
  assay.value: 4
- compound: "CS(=O)(=O)OCCN(CCOS(C)(=O)=O)c1ccc(C=Nc2cccc(Cl)c2)cc1"
  assay.value: 40

Okay, now this compound:
For the compound Nc1c(-c2c(Cl)cccc2Cl)[n+]([O-])c2ccccc2[n+]1[O-] , give its reported growth inhibition.
29

----------
Assay: NCI Yeast Anticancer Drug Screen. Data for the rad50 strain (AID 155);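 further: 0% = growth of vehicle-only cultures of the same strain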
Conditions: S. cerevisiae rad50 strain growth inhibition; at 5.0 µM (retest, dose inferred, filed as 0.5)
Compounds without any hit were thinned out: in the full panel of roughly 79,000, 15% have a hit. Calls of active or inactive are those of the source. No stated cut-off is given here; in the data, active means growth inhibition above about 70%; inactive means the rest.
The reply should name one outcome from active, inactive

Use the examples below as a reference point.
- compound: "Cc1nc(N)sc1N=Nc1cccc(Cl)c1Cl"
  class.label: "inactive"
- compound: "Nc1nc2c(ccc3ccccc32)s1"
  class.label: "inactive"
- compound: "CCNCCNc1cc(O)c2c(c1O)C(=O)c1ccccc1C2=O"
  class.label: "active"
- compound: "NC(=O)/C=C/C(=O)c1c(Cl)cccc1Cl"
  class.label: "active"
- compound: "O=C(O)[C@@H]1CCCC[C@@H]1C(=O)N(C1CCCCC1)C1CCCCC1"
  class.label: "inactive"

What call does the record list for Nc1nc2nc(I)[nH]c2c(=O)[nH]1 ?
inactive

What call does the record list for CCCCNC(=S)NC1C2CC3CC(C2)CC1C3 (configuration not stated) ?
inactive

What call does the record list for CN(C)C1CCC(N=Nc2cc([N+](=O)[O-])ccc2C(=O)O)CC1 (configuration not stated) ?
inactive

What call does the record list for C=CCC(O)C(=O)OC1CC(C)CCC1C(C)(C)c1ccccc1 (configuration not stated) ?
inactive

What call does the record list for O=[N+]([O-])c1cc(I)c(O)c(/C=N/NS(=O)(=O)c2ccc(Cl)cc2)c1 ?
inactive

What call does the record list for Oc1ccc(-c2ccccc2)cc1Br ?
inactive

What call does the record list for CCOc1ccc(-c2nc3ccc(-c4nc5ccc(N6CCN(C)CC6)cc5[nH]4)cc3[nH]2)cc1 ?
inactive

----------
Test: NCI Yeast Anticancer Drug Screen. Data for the mec2-1 strain (AID 157)
Settings: S. cerevisiae mec2-1 strain, at 5.0 µM (retest, dose inferred, filed as 0.5)
Description: Growth inhibition of yeast strains with defined genetic alterations is measured as a screen for potential anti-cancer activity. Selected strains with alterations in DNA damage repair or cell cycle control were exposed to compounds and growth inhibition was measured relative to vehicle treated controls. The strain used in this assay is mec2-1
About 79,000 compounds went through this panel and 15% of them were active in at least one assay; those are over-represented in the sample as a whole. Activity calls are given as the source filed them. No stated cut-off is given here; in the data, active means growth inhibition above about 70%; inactive means the rest.
The reply should name one outcome from active, inactive

What call does the record list for O=C1c2ccccc2C(=O)c2sccc21 ?
inactive

What call does the record list for N#CC(C#N)=C(c1ccccc1)c1ccccc1 ?
inactive

What call does the record list for O=C(Nc1ccc(S(=O)(=O)NC2CCCCC2)cc1)OCc1ccccc1 ?
active

What call does the record list for CCOC(=O)CCc1ccc(OC)c(OC)c1 ?
inactive

What call does the record list for COc1cc2oc(-c3ccc(O)cc3O)c(CC=C(C)C)c(=O)c2c(O)c1/C=C/C(C)C ?
inactive

What call does the record list for Clc1ccc(N=Cc2c3ccccc3cc3ccccc23)c(Cl)c1 ?
inactive

What call does the record list for CN(C)CC(CN(C)C)C(=O)c1ccc(Oc2ccccc2)cc1 ?
active

What call does the record list for CCC/C(=N\NC(=S)N1CCCCCC1)c1ccccn1 ?
active

----------
Listed here: items and their measured growth inhibition.
Test: NCI Yeast Anticancer Drug Screen. Data for the rad50 strain (AID 155);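 further: 0% = growth of vehicle-only cultures of the same strain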
Settings: S. cerevisiae rad50 strain growth inhibition; at 50.0 µM (retest, dose inferred, filed as 5.0); stronger effect = higher value
Method: Growth inhibition of yeast strains with defined genetic alterations is measured as a screen for potential anti-cancer activity. Selected strains with alterations in DNA damage repair or cell cycle control were exposed to compounds and growth inhibition was measured relative to vehicle treated controls. The strain used in this assay is rad50
This is part of a sample that, as a whole, favours compounds with a hit. Of some 79,000 tested, about 15% had one in any assay. The source made the active and inactive calls. Cut-off read from the data, not from the text of the source: active = growth inhibition above about 70%; inactive = the rest.

Examples from the recorded data:
- molecule: "CC1OC2CC(=O)OC2C2=C1C(=O)c1c(O)cccc1C2=O (stereo unspecified)"
  assay.value: "99% (active)"
- molecule: "O/N=C/c1cc(Cl)cc(Cl)c1O"
  assay.value: "96% (active)"
- molecule: "Cc1occc1C(=S)Nc1ccc(Cl)c(C(=O)OCC2CC2)c1"
  assay.value: "-3% (inactive)"

For the molecule c1cc[c]([Sn]([S]c2cccc3cccnc23)([S]c2cccc3cccnc23)[c]2ccccc2)cc1 , give its reported growth inhibition.
99% (active)

For the molecule COc1ccc2c(c1)CCc1c-2ccc(C)c1CCC(=O)O , give its reported growth inhibition.
99% (active)

For the molecule COc1ccccc1/C=C1\S/C(=N/Nc2nc(C)c(C(C)=O)s2)NC1=O , give its reported growth inhibition.
29% (inactive)

Source of measurements: PubChem BioAssay (NCI)
